measurement_notes: clinical
test_parameters: human, plasma, 40 mg
experimental_readout: concentration at 8 h (ng/mL)
The answer is to be given in ng/mL; state only the numeric part.

Summary for this molecule, COc1ccc2[nH]c([S+]([O-])Cc3ncc(C)c(OC)c3C)nc2c1 (stereo not shown) [Omeprazole] : concentration at 8 h is 232

* * *

measurement_notes: clinical
test_parameters: human, plasma, oral, 40 mg
experimental_readout: concentration at 75 min (ng/mL)
Just the number in ng/mL, nothing appended.

// sample COc1ccc2[nH]c([S+]([O-])Cc3ncc(C)c(OC)c3C)nc2c1 (stereo not shown) [Omeprazole] , its concentration at 75 min was 610

* * *

measurement_notes: clinical
test_parameters: human, plasma, 40 mg
experimental_readout: concentration at 3 min (µg/mL)
Use µg/mL as the unit, but write only the number.

// sample COc1ccc2[nH]c([S+]([O-])Cc3ncc(C)c(OC)c3C)nc2c1 (stereo not shown) [Omeprazole] , its concentration at 3 min was 0.0275

* * *

Measured Stability Range Factor (pH range), listed per entry.
measurement_notes: Calculation of Essential pH and Stability Range Factor (SRF)
Assay type: physicochemical
test_parameters: calculated from pKa; read-out: Stability Range Factor (SRF), pH range (pKa + 0.7) to 10.9

Consider the following illustrative entries.
>  <compound>
Cc1c(OCC(F)(F)F)ccnc1C[S+]([O-])c1nc2ccccc2[nH]1 (stereo not shown)

>  <Stability Range Factor (pH range)>
4.8 to 10.9

$$$$
>  <compound>
COc1ccnc(C[S+]([O-])c2nc3ccc(OC(F)F)cc3[nH]2)c1OC (stereo not shown)

>  <Stability Range Factor (pH range)>
3.7 to 10.9

$$$$
>  <compound>
COc1ccc2[nH]c([S+]([O-])Cc3ncc(C)c(OC)c3C)nc2c1 (stereo not shown)

>  <Stability Range Factor (pH range)>
4.6 to 10.9

$$$$

Could you now look at the following compound, please?
Lookup result for COCCCOc1ccnc(C[S+]([O-])c2nc3ccccc3[nH]2)c1C (stereo not shown) ; measured Stability Range Factor (pH range): 5.6 to 10.9
